tested on: BT20; assay: GRmax, 72 h; higher = less effect
Note to self: values exactly at 0.09 GR are met. So GRmax, 72 h at or above 0.09 GR is met, below is not met.

| Molecule | Discrete Label |
| --- | --- |
| Nc1ccc(-c2ccc3ncc4ccc(=O)n(-c5cccc(C(F)(F)F)c5)c4c3c2)cn1 [Torin2] (max 1 µM) | not met |

Decide: is the reported value of GRmax, 72 h for CC(=O)c1c(C)c2cnc(Nc3ccc(N4CCNCC4)cn3)nc2n(C2CCCC2)c1=O (max 3.162 µM) equal to or greater than 0.09 GR?
met

Do the same for O=C1NC(=NCc2cccs2)SC1=Cc1ccc2ncccc2c1 [R0-3306] (max 10 µM) please
not met

Ok, now CO[C@@H](C)Cn1c(=O)n(C)c2cnc3ccc(-c4cncc(C(C)(C)O)c4)cc3c21 (max 10 µM)
not met

Same question for Cc1cc(C(C)Nc2ccccc2)c2nc(N3CCOCC3)cc(=O)n2c1 (stereo not given) [TGX221] (max 10 µM) please.
met

====

The entries below are paired with their reported GRmax, 72 h.
tested on: PDX1206; experiment: GRmax, 72 h; higher = less effect
The reply should contain only the number, in GR.

The examples below pair each entry with its known result.
| Molecule | Unit Abbreviation | GRmax, 72 h |
| --- | --- | --- |
| CC1(N)CCN(c2cnc(-c3cccc(Cl)c3Cl)c(N)n2)CC1 [SHP099] (max 10 µM) | GR | 0.7 |
| CN(C)C(=O)c1cc2cnc(Nc3ccc(N4CCNCC4)cn3)nc2n1C1CCCC1 [LEE011/Ribociclib] (max 10 µM) | GR | 0.713 |

Find the recorded GRmax, 72 h belonging to CNC(=O)c1cccc(-c2ccc3c(N4CCOC[C@@H]4C)nc(N4CCOC[C@@H]4C)nc3n2)c1 [AZD2014] (max 10 µM) and report it.
0.14

Try COc1cccc(OCCCN)c1-c1cc(Nc2cnc(C#N)cn2)n[nH]1 next.
-0.497

And for CNc1nc(-c2ccc3c(N)n[nH]c3c2)cc(N2C[C@@H](C(=O)NC3CCCCC3)CC[C@H]2C)n1 (max 10 µM) ?
0.295

Would you mind doing CCCCOc1c(C(=O)c2c(F)cc(C)cc2F)c[nH]c2nncc1-2 (max 10 µM) as well?
0.123

====

system: SUM185PE; assay: GRmax, 72 h; higher = less effect;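 also: breast cell lines in 384-well plates, nine doses across a 10^4 range, Dye Drop imaging of viable cells vs DMSO and time-zero plates, GR 0 means no net growth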
Measured Attribute: GRmax, 72 h (GR)
Numbers only; they are read as GR.

Example cases with answers are listed next.
| Compound | GRmax, 72 h / GR |
| --- | --- |
| CC(=O)c1c(C)c2cnc(Nc3ccc(N4CCNCC4)cn3)nc2n(C2CCCC2)c1=O (max 3.162 µM) | 0.852 |
| Cc1nn(C)c(COc2ccc(N3CCN(S(=O)(=O)N(C)C)CC3)cc2)c1-c1cccc2c(CCCOc3cccc4ccccc34)c(C(=O)O)n(CCN3CCOCC3)c12 (max 10 µM) | 0.532 |
| NC(=O)Nc1cc(-c2cccc(F)c2)sc1C(=O)N[C@H]1CCCNC1 [AZD7762] (max 10 µM) | 0.115 |
| O=C(CCCCCCC(=O)Nc1ccccc1)NO [Vorinostat] (max 10 µM) | 0.222 |

Now turn to the next compound.
What does the record list as GRmax, 72 h for CN(C)C/C=C/C(=O)Nc1ccc(O[C@@H]2CCC[C@@H](Nc3ncc(Cl)c(-c4c[nH]c5ccccc45)n3)C2)cc1 [BSJ-01-175] (max 10 µM) ?
-0.47
